Target: UniProtKB Q96RI1
Sequence (Q96RI1 whole entry, the tested form may be a part): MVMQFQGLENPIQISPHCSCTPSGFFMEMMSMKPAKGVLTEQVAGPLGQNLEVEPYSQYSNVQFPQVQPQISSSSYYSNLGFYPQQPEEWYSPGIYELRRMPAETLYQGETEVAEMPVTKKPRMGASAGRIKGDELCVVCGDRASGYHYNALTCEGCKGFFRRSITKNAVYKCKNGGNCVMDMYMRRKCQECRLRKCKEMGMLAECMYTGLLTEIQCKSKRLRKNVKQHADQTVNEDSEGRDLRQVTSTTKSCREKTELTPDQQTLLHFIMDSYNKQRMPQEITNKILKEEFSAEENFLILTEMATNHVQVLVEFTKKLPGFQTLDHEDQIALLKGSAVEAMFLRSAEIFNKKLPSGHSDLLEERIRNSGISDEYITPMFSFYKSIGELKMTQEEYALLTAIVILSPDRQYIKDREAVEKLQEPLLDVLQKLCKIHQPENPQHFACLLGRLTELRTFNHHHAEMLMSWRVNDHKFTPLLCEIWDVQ
Test: Human FXR (NR1H4) Assay (Gal4 promoter driven luciferase reporter, Indigo Bioscience kit)
Details: Human FXR (NR1H4) Assay, potency ranges
parameter: EC50

compound="CC[C@H]1[C@@H](O)[C@@H]2[C@H](CC[C@]3(C)[C@@H]([C@H](C)CCOC(=O)N(C)OC)CC[C@@H]23)[C@@]2(C)CC[C@@H](O)C[C@@H]12 [Example 164]" result="100 to 1000 nM"
compound="CC[C@H]1[C@@H](O)[C@@H]2[C@H](CC[C@]3(C)[C@@H]([C@H](C)CCOC(=O)N4CC[C@@H](O)C4)CC[C@@H]23)[C@@]2(C)CC[C@@H](O)C[C@@H]12 [Example 215]" result="< 100 nM"
compound="CCOC(=O)C1CCN(C(=O)OCC[C@@H](C)[C@H]2CC[C@H]3[C@@H]4[C@H](O)[C@H](CC)[C@@H]5C[C@H](O)CC[C@]5(C)[C@H]4CC[C@]23C)CC1 [Example 145]" result="1000 to 10000 nM"
compound="CCOC(=O)CNC(=O)OCC[C@@H](C)[C@H]1CC[C@H]2[C@@H]3[C@H](O)[C@H](CC)[C@@H]4C[C@H](O)CC[C@]4(C)[C@H]3CC[C@]12C [Example 156]" result="100 to 1000 nM"
compound="CC[C@H]1[C@@H](O)[C@@H]2[C@H](CC[C@]3(C)[C@@H]([C@H](C)CCCOC(=O)NS(=O)(=O)C4CCCC4)CC[C@@H]23)[C@@]2(C)CC[C@@H](O)C[C@@H]12 [Example 120]" result="100 to 1000 nM"
compound="CC[C@H]1[C@@H](O)[C@@H]2[C@H](CC[C@]3(C)[C@@H]([C@H](C)CCOC(=O)N(C)C)CC[C@@H]23)[C@@]2(C)CC[C@@H](O)C[C@@H]12 [Example 129]" result="100 to 1000 nM"
compound="CC[C@H]1[C@@H](O)[C@@H]2[C@H](CC[C@]3(C)[C@@H]([C@H](C)CCOC(=O)NCC(C)(C)O)CC[C@@H]23)[C@@]2(C)CC[C@@H](O)C[C@@H]12 [Example 142]" result="100 to 1000 nM"
compound="CC[C@H]1[C@@H](O)[C@@H]2[C@H](CC[C@]3(C)[C@@H]([C@H](C)COC(=O)NS(=O)(=O)c4ccc(-c5ccc(OC(F)(F)F)cc5)cc4)CC[C@@H]23)[C@@]2(C)CC[C@@H](O)C[C@@H]12 [Example 33]" result="< 100 nM"
compound="CC[C@H]1[C@@H](O)[C@@H]2[C@H](CC[C@]3(C)[C@@H]([C@H](C)COC(=O)N4CCCCC4)CC[C@@H]23)[C@@]2(C)CC[C@@H](O)C[C@@H]12 [Example 201]" result="100 to 1000 nM"
